Kindly supply the reported IC50 values for the records listed here.
Target: human RAF1 (Homo sapiens (Human), UniProt P04049)
Sequence (P04049 whole entry): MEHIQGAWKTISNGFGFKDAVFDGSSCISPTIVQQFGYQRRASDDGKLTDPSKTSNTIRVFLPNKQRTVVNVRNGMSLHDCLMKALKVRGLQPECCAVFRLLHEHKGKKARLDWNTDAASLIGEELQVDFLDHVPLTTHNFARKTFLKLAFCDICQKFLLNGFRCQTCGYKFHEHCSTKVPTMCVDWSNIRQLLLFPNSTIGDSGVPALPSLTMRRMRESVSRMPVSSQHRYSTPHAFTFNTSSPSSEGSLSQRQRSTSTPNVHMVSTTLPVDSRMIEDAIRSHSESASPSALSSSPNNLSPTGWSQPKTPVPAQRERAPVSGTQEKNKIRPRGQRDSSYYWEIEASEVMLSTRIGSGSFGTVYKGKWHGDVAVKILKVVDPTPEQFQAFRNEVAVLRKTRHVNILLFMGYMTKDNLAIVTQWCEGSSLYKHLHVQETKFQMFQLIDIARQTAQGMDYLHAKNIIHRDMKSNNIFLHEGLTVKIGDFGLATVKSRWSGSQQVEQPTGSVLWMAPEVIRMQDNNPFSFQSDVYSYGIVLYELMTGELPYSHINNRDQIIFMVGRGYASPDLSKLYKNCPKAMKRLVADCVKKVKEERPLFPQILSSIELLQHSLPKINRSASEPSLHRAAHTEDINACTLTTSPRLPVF
Experiment: Protein kinase assay (radiometric 33P-ATP, MEK1 (K97R) substrate), RAF-1
Format: biochemical
Details: human MEK1 (K97R) substrate 3 micromolar, ATP 10 micromolar; 10-dose, 3-fold serial dilution starting at 10 micromolar; read-out: RAF-1 IC50
Protocol: Example 1: Kinase Assay Protocol Assay platform was used to measure kinase/inhibitor interactions as described previously (Anastassiadis et al., 2011). […] The percent remaining kinase activity relative to a vehicle-containing (DMSO) kinase reaction was calculated for each kinase/inhibitor pair. IC50 values were calculated using Prism 5 (GraphPad).
Where a name gives a salt, the structure may show the parent alone.

// known answers, use as guide
INSERT INTO measurements (compound, endpoint_value) VALUES
  ('Cc1cc(F)c(NC(=O)N2CC[C@@H](CC(F)(F)F)C2)cc1-c1cc(C2CC2)nc(N2CCOCC2)c1', '< 1 nM'),
  ('Cc1ccc(NC(=O)N2CC[C@@H](CC(F)(F)F)C2)cc1-c1cc([C@@H]2C[C@@H]2CO)nc(N2CCOCC2)c1', '< 1 nM'),
  ('Cc1ccc(NC(=O)N2CC[C@@H](CC(F)(F)F)C2)cc1-c1cc(-c2ccnc(N)n2)nc(N2CCOCC2)c1', '1 to 10 nM'),
  ('Cc1ccc(NC(=O)N2CC[C@@H](CC(F)(F)F)C2)cc1-c1cc(-c2cnn(C)c2C)nc(N2CCOCC2)c1', '< 1 nM'),
  ('Cc1ccc(NC(=O)N2CC[C@@H](CC(F)(F)F)C2)cc1-c1cc(C#CC(C)(C)O)nc(N2CCOCC2)c1', '1 to 10 nM');

Look at each compound and report its IC50.
1. Cc1ccc(NC(=O)N2CC[C@@H](CC(F)(F)F)C2)cc1-c1cc(C2CCNC2)nc(N2CCOCC2)c1 (some centres unmarked)
2. Cc1ccc(NC(=O)N2CC[C@@H](CC(F)(F)F)C2)cc1-c1cc(-c2c(C)n[nH]c2C)nc(N2CCOCC2)c1
3. Cc1ccc(NC(=O)N2CC[C@@H](CC(F)(F)F)C2)cc1-c1cc(-c2cc(C)n(C)n2)nc(N2CCOCC2)c1
4. Cc1ccc(NC(=O)N2CC[C@@H](CC(F)(F)F)C2)cc1-c1cc(N2CCOCC2)nc(C(F)(F)F)c1
5. Cc1ccc(NC(=O)N2CC[C@@H](CC(F)(F)F)C2)cc1-c1cc(-c2cn[nH]c2)nc(N2CCOCC2)c1
6. Cc1ccc(NC(=O)N2CC[C@@H](CC(F)(F)F)C2)cc1-c1cc(C(=O)NC[C@H](C)O)nc(N2CCOCC2)c1
7. Cc1ccc(NC(=O)N2CC[C@@H](CC(F)(F)F)C2)cc1-c1cc(C#CC(C)N)nc(N2CCOCC2)c1 (some centres unmarked)

Marked response:
1: < 1 nM; 2: 1 to 10 nM; 3: 1 to 10 nM; 4: 1 to 10 nM; 5: < 1 nM; 6: < 1 nM; 7: 1 to 10 nM

Look at each compound and report its IC50.
1. Cc1ccc(NC(=O)N2CC[C@@H](CC(F)(F)F)C2)cc1-c1cc(C2CCN(C)C2)nc(N2CCOCC2)c1 (some centres unmarked) [Example 38, formate]
2. Cc1ccc(NC(=O)N2CC[C@@H](CC(F)(F)F)C2)cc1-c1cc(C2=CCN(C)C2)nc(N2CCOCC2)c1

Marked response:
1. 1 to 10 nM
2. 1 to 10 nM
